I'd be grateful if you could share measured IC50 for these entries.
target: [Pyruvate dehydrogenase (acetyl-transferring)] kinase isozyme 2, mitochondrial (Homo sapiens, UniProt Q15119)
Numbers only, in nM.

Consider the following illustrative entries.
{"compound": "CCNc1cc(F)cc2c1NC(=O)C2(CC)N1CCC[C@@H](NC(=O)C2CC3(C2)CN(C#N)C3)C1 (mixture of isomers)", "outcomeMeasure": "IC50", "unitLabel": "nM", "dataValue": 15}
{"compound": "CCNc1cc(F)cc2c1[nH]c(=O)n2-c1c(C)cc(Oc2cccc(C(=O)O)c2)cc1Cl", "outcomeMeasure": "IC50", "unitLabel": "nM", "dataValue": 34}

IC50 reading for `CCNc1cc(F)cc2c1[nH]c(=O)n2-c1ccc(Oc2cccc(S(=O)(=O)F)c2)cc1` : 120

* * *

I'd be grateful if you could share measured CC50 for these entries.
assay: Cytotoxicity against human PBMC cells

Consider the following illustrative entries.
{"compound": "CCNc1cc(F)cc2c1NC(=O)C2(C)N1CCC[C@@H](Nc2ccc(C#N)nc2)C1 (mixture of isomers)", "CC50": "56.9 µM"}
{"compound": "CCNc1cc(F)cc2c1[nH]c(=O)n2-c1c(C)cc(Oc2cccc(C(=O)O)c2)cc1Cl", "CC50": "> 100 µM"}
{"compound": "CCNc1cc(F)cc2c1NC(=O)C2(CC)N1CCC[C@@H](NC(=O)C2CC3(C2)CN(C#N)C3)C1 (mixture of isomers)", "CC50": "> 100 µM"}
{"compound": "CCNc1cc(F)cc2c1NC(=O)C2(C)N1CCCCC1 (racemic)", "CC50": "> 100 µM"}
{"compound": "CCNc1cc(F)cc2c1NC(=O)C2(C)N1CCC[C@@H](Nc2ccc(C(=O)O)c(Cl)c2)C1 (stereo partly specified)", "CC50": "> 100 µM"}

Let's switch to this compound now.
CC50 reading for `CCNc1cc(F)cc2c1[nH]c(=O)n2-c1ccc(Oc2cccc(S(=O)(=O)F)c2)cc1` : > 100 µM
